Tested on: Acinetobacter baumannii
ASSAY INFO: Broth microdilution MIC (CLSI), Acinetobacter baumannii
Assay type: cell-based
PARTICULARS: Acinetobacter baumannii, strain ACM1013, ΔadeIJK
Consider the following molecules; for each one, report its MIC.
Answers are plain numbers, in µg/mL.

Batch request: MIC for each of the following molecules.
1. CC1=C[C@@H]2CN(C(=O)N2OS(=O)(=O)O)[C@@H]1C(N)=O
2. C[C@@H](O)[C@H]1C(=O)N2C(C(=O)O)=C(S[C@@H]3CN[C@H](C(=O)N(C)C)C3)[C@H](C)[C@H]12
3. CO/N=C(\C(=O)N[C@@H]1C(=O)N2C(C(=O)[O-])=C(C[N+]3(C)CCCC3)CS[C@H]12)c1csc(N)n1 [Cefepime]
4. O=C(O)c1c(F)ccc2c1OB(O)[C@@H]1C[C@H]21
5. C[C@H]1[C@H](NC(=O)/C(=N\OC(C)(C)C(=O)O)c2csc(N)n2)C(=O)N1S(=O)(=O)O

[reply]
[32, 0.125, 4, 4, 1]

====

TARGET OR SYSTEM: PBP3 (Acinetobacter baumannii, UniProt A0ABX6CK25)
Sequence (A0ABX6CK25 entry or part of it): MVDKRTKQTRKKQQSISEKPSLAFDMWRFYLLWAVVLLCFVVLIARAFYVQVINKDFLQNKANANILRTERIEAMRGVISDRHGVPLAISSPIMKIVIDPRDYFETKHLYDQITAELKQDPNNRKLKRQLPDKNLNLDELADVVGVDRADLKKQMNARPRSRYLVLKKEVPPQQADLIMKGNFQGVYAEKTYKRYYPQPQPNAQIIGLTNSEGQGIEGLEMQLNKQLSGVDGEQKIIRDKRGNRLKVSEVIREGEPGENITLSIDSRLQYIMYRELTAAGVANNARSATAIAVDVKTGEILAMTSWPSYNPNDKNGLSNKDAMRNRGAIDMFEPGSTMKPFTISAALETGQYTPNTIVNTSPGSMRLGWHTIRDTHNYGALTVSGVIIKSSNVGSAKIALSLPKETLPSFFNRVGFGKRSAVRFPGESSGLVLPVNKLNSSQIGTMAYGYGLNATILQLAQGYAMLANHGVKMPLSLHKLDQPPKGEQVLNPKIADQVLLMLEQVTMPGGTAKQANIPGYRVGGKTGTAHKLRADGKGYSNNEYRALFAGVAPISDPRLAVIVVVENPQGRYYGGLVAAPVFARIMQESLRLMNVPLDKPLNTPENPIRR
ASSAY INFO: Gel-based Bocillin FL competition PBP binding assay
PARTICULARS: read-out: Relative binding IC50, PBP3; A. baumannii ACM1320 membranes; Bocillin FL step 0°C for xeruborbactam, 30°C for beta-lactams
MEASURED METRIC: pIC50
One number for each entry, as −log10 of the molar value.

[ask] Need pIC50, item C[C@@H](O)[C@H]1C(=O)N2C(C(=O)O)=C(S[C@@H]3CN[C@H](C(=O)N(C)C)C3)[C@H](C)[C@H]12 [Meropenem]
[reply] 6.72

====

TARGET OR SYSTEM: PBP1b (Escherichia coli)
Construct: endogenous in cells; host or cells: Escherichia coli ECM5497 (MG1655), total membrane preparation
Sequence (P02919 whole entry): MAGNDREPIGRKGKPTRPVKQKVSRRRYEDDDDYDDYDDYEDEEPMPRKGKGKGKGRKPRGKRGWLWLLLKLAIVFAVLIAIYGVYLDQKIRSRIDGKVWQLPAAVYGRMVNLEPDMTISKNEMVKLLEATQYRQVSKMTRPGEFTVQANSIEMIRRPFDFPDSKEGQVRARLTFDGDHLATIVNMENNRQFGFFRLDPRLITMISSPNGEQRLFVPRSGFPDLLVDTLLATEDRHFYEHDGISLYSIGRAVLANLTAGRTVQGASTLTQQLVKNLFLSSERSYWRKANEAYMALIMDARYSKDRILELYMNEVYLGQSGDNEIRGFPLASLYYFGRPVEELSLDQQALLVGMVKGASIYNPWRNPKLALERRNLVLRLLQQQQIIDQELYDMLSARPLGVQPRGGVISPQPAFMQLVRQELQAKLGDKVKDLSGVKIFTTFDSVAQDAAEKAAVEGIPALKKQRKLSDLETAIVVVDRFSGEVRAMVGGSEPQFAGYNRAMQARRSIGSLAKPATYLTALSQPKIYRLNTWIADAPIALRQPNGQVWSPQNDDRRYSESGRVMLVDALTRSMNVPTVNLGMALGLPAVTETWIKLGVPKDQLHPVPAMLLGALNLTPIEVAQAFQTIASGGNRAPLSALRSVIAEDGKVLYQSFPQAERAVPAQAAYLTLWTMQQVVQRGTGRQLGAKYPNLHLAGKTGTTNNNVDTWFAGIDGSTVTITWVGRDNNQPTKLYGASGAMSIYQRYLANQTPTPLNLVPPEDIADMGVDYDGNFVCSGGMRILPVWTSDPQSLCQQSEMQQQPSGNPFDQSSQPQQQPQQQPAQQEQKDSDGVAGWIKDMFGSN
ASSAY INFO: Gel-based Bocillin FL competition PBP binding assay
PARTICULARS: E. coli ECM5497 membranes; Bocillin FL step 0°C for xeruborbactam, 30°C for beta-lactams; read-out: Relative binding IC50, PBP1b
MEASURED METRIC: IC50 (µM)
Answers are plain numbers, in µM.

[ask] // returns reported IC50 for input O=C(O)c1c(F)ccc2c1OB(O)[C@@H]1C[C@H]21
[reply] 56

====

Tested on: Klebsiella pneumoniae
ASSAY INFO: microbe, parasite or virus in culture
Assay type: cell-based
PARTICULARS: Klebsiella pneumoniae, strain KPM1171, ramR ompK36_1171; read-out: MIC
MEASURED METRIC: MIC (µg/mL)
Answers are plain numbers, in µg/mL.

I'm hoping you can list MIC for every molecule here, please.
1. O=C(O)c1c(F)ccc2c1OB(O)[C@@H]1C[C@H]21
2. CC1=C[C@@H]2CN(C(=O)N2OS(=O)(=O)O)[C@@H]1C(N)=O
3. CO/N=C(\C(=O)N[C@@H]1C(=O)N2C(C(=O)[O-])=C(C[N+]3(C)CCCC3)CS[C@H]12)c1csc(N)n1 [Cefepime]

[reply]
1. 64
2. 32
3. 2

====

Provide the recorded MIC for the entries that follow.
Tested on: Pseudomonas aeruginosa
ASSAY INFO: Broth microdilution MIC (CLSI), Pseudomonas aeruginosa
Assay type: cell-based
PARTICULARS: Pseudomonas aeruginosa, strain PAM1032, nalB (MexAB-OprM overexpression)
Numbers only, in mg/L.

O=C(NNC(=O)[C@@H]1CC[C@@H]2CN1C(=O)N2OS(=O)(=O)O)[C@@H]1CCCNC1 [Zidebactam]; 4

[ask] Which MIC is reported with Pseudomonas aeruginosa for this entry: C[C@@H](O)[C@H]1C(=O)N2C(C(=O)O)=C(S[C@@H]3CN[C@H](C(=O)N(C)C)C3)[C@H](C)[C@H]12 [Meropenem] ?
[reply] 1
